- ASSAY NOTES: Metabolic stability in human liver microsomes assessed as compound metabolism after 20 mins incubation in presence of 1 mM NADPH
- Type: ADME
- PARTICULARS: liver microsomes, read-out: Drug metabolism
metabolised at 20 min listing for selected compounds.
# value in %; strip the unit string

Example entries begin here.
>>> reported_result("CCCC(=O)c1cnn(-c2ccc(NC(=O)c3cn(CC(=O)N4CCN(C)CC4)c4cc(F)c(Cl)cc34)cc2)c1C")
31
>>> reported_result("CCCC(=O)c1cnn(-c2ccc(NC(=O)c3cn(CC(=O)N4CCN(C)C(C)C4)c4ccc(C)cc34)cc2)c1C (centres undefined)")
65
>>> reported_result("CCCC(=O)c1cnn(-c2ccc(NC(=O)c3cn(CC(=O)N4CCN(C)CC4)c4ccc(Cl)cc34)cc2)c1C")
36

With those in mind, consider the next compound.
Field metabolised at 20 min (entry `CCCC(=O)c1cnn(-c2ccc(NC(=O)c3cn(CC(=O)N4CCN(C)CC4)c4cc(C)c(Cl)cc34)cc2)c1C` ) reads 36

###

- ASSAY NOTES: Solubility in water at pH 4.9
- Assay type: physicochemical
ENDPOINT NAME: solubility (µg/mL)
# value in µg/mL; strip the unit string

Field solubility (entry `CCCC(=O)c1cnn(-c2ccc(NC(=O)c3cn(CC(=O)N4CCN(C)CC4)c4ccc(C)cc34)cc2)c1C.Cl` ) reads 760

###

Activity listing for selected compounds.
- Tested on: Hepatocyte
- ASSAY NOTES: Intrinsic metabolic clearance in human hepatocytes measured assessed as CYP3A4 contribution per 10^6 cells after 24 hrs
- Format: ADME, cell-based

>>> reported_result("CCCC(=O)c1cnn(-c2ccc(NC(=O)c3cn(CC(=O)N4CCN(C)CC4)c4ccc(Cl)cc34)c(C#N)c2)c1C")
"67%"
>>> reported_result("CCCC(=O)c1cnn(C2CCN(NC(=O)c3cn(CC(=O)N4CCN(C)CC4)c4ccc(Cl)cc34)CC2)c1C")
"35%"
>>> reported_result("CCCC(=O)c1cnn([C@H]2CC[C@H](NC(=O)c3cn(CC(=O)N4CCN(C)CC4)c4ccc(Cl)cc34)CC2)c1C")
"64%"

Field Activity (entry `CCCC(=O)c1cnn(-c2ccc(NC(=O)c3cn(CC(=O)N4CCN(C)CC4)c4ccc(Cl)cc34)nn2)c1C` ) reads 43%

###

- TARGET ENTITY: P2Y purinoceptor 12 (Homo sapiens)
- Sequence (Q9H244 whole entry): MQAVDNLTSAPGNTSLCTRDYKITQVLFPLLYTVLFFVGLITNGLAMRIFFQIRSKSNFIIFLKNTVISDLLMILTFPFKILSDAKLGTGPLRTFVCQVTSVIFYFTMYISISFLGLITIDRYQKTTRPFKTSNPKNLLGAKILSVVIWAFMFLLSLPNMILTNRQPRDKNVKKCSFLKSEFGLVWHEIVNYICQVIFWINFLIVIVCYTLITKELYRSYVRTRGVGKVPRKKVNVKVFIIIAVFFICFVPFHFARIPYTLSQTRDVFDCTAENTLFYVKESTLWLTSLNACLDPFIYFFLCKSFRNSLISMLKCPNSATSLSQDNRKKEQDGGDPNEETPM
- ASSAY NOTES: Displacement of [33P]2MeS-ADP from P2Y12 receptor (unknown origin) transfected in CHO cells after 30 mins by scintillation counting analysis
ENDPOINT NAME: log10(IC50) (log10 of the value in nM)
// do not treat as linear: log10 of IC50, unit nM

>>> reported_result("CCCC(=O)c1cnn(-c2ccc(NC(=O)c3cn(CC(=O)N(C)CCN4CCCC4)c4ccc(C)cc34)cc2)c1C")
2.09
>>> reported_result("CCCC(=O)c1cnn(-c2ccc(NC(=O)c3cn(CC(=O)N4CCN(C)CC4)c4ccc(Cl)cc34)c(C(=O)O)c2)c1C")
1.88

Field log10(IC50) (entry CCCC(=O)c1cnn(-c2ccc(NC(=O)c3cn(CC(=O)N4CCC(NC)C4)c4ccc(C)cc34)cc2)c1C (stereo not drawn) ) reads 1.97

Field log10(IC50) (entry `CCCC(=O)c1cnn(-c2ccc(NC(=O)c3cn(CC(=O)N(C)CCNC)c4ccc(C)cc34)cc2)c1C` ) reads 1.97

Field log10(IC50) (entry `CCCC(=O)c1cnn(-c2ccc(NC(=O)c3cn(CC(=O)N4CCN(C)CC4)c4ccc(C#N)cc34)cc2)c1C` ) reads 1.88

Field log10(IC50) (entry `CCCC(=O)c1cnn(-c2ccc(NC(=O)c3cn(CC(=O)N4CCN(C)CC4)c4ccc(F)cc34)cc2)c1C` ) reads 2.15

Field log10(IC50) (entry `CCCC(=O)c1cnn(-c2ccc(NC(=O)c3cn(CC(=O)N4CCN(C)CC4)c4ccc(C)cc34)cc2)c1C.Cl` ) reads 1.49

Field log10(IC50) (entry `CCCC(=O)c1cnn(-c2ccc(NC(=O)c3cn(CC(=O)O)c4ccc(C)cc34)cc2)c1C` ) reads -0.05

###

- ASSAY NOTES: Permeability across human Caco2 cells
- Format: ADME, cell-based
- PARTICULARS: Caco-2, read-out: permeability
Mark Fulfilled only when Papp stays strictly below 4 ×10⁻⁶ cm/s. Values equal to the cut-off are Not fulfilled.

These recorded examples may help you get a feel for the data.
>>> group("CCCC(=O)c1cnn(-c2ccc(NC(=O)c3cn(CC(=O)N4CCN(CCF)CC4)c4ccc(C)cc34)cc2)c1C")
"Not fulfilled"
>>> group("CCCC(=O)c1cnn(-c2ccc(NC(=O)c3cn(CC(=O)N4CCN(C)CC4)c4cc(C)c(Br)cc34)cc2)c1C")
"Fulfilled"
>>> group("CCCC(=O)c1cnn(-c2ccc(NC(=O)c3cn(CC(=O)N4CCN(Cc5cc(C)on5)CC4)c4ccc(Cl)cc34)cc2)c1C")
"Fulfilled"
>>> group("CCCC(=O)c1cnn([C@H]2CC[C@H](NC(=O)c3cn(CC(=O)N4CCN(C)CC4)c4ccc(Cl)cc34)CC2)c1C")
"Fulfilled"
>>> group("CCCC(=O)c1cnn(-c2ccc(NC(=O)c3cn(CC(=O)N4CCN(C)CC4)c4ccc(C(F)(F)F)cc34)cc2)c1C")
"Fulfilled"

Q. For this compound, is Papp lower than 4 ×10⁻⁶ cm/s? `CCCC(=O)c1cnn(C2CCN(NC(=O)c3cn(CC(=O)N4CCN(C)CC4)c4ccc(Cl)cc34)CC2)c1C`
A. Fulfilled

Q. For this compound, is Papp lower than 4 ×10⁻⁶ cm/s? `CCCC(=O)c1cnn(-c2ccc(NC(=O)c3cn(CC(=O)N4CCN(CCOC)CC4)c4ccc(Cl)cc34)cc2)c1C`
A. Not fulfilled

Q. For this compound, is Papp lower than 4 ×10⁻⁶ cm/s? `CCCC(=O)c1cnn(-c2ccc(NC(=O)c3cn(CC(=O)N4CCN(CC(F)F)CC4)c4ccc(C)cc34)cc2)c1C`
A. Not fulfilled

###

IC50 listing for selected compounds.
- TARGET ENTITY: P2Y purinoceptor 12 (Homo sapiens)
- ASSAY NOTES: Displacement of [33P]2MeS-ADP from P2Y12 receptor (unknown origin) transfected in CHO cells after 30 mins by scintillation counting analysis
# value in nM; strip the unit string

Example entries begin here.
>>> reported_result("CCCC(=O)c1cnn(-c2ccc(NC(=O)c3cn(CC(=O)N4CCN(C)CC4)c4ccc(Cl)cc34)nn2)c1C")
17
>>> reported_result("CCCC(=O)c1cnn(-c2ccc(NC(=O)c3cn(CC(=O)N4CCN5CCN(C)C(=O)C5C4)c4ccc(Cl)cc34)cc2)c1C (single isomer, unassigned; 103)")
7
>>> reported_result("CCCC(=O)c1cnn(-c2ccc(NC(=O)c3cn(CC(=O)NC4CCN(C)CC4)c4ccc(C)cc34)cc2)c1C")
139
>>> reported_result("CCCC(=O)c1cnn(-c2ccc(NC(=O)c3cn(CC(=O)N4CCC(N)CC4)c4ccc(C)cc34)cc2)c1C")
71
>>> reported_result("CCCC(=O)c1cnn(-c2ccc(NC(=O)c3cn(CC(=O)N4CCN(C)C(C)C4)c4ccc(C)cc34)cc2)c1C (stereo unspecified)")
27

Field IC50 (entry `CCCC(=O)c1cnn(-c2ccc(NC(=O)c3cn(CC(=O)N4CCCN(C)CC4)c4ccc(C)cc34)cc2)c1C` ) reads 95

Field IC50 (entry CCCC(=O)c1cnn(-c2ccc(NC(=O)c3cn(CC(=O)N4CCCC(N)C4)c4ccc(C)cc34)cc2)c1C (stereo unspecified) ) reads 46

Field IC50 (entry `CCCC(=O)c1cnn(-c2ccc(NC(=O)c3cn(CC(=O)O)c4ccc(C)c(C)c34)cc2)c1C` ) reads 272

###

- ASSAY NOTES: Metabolic stability in mouse liver microsomes assessed as compound metabolism after 20 mins incubation in presence of 1 mM NADPH
- Assay type: ADME
- PARTICULARS: read-out: Drug metabolism
ENDPOINT NAME: metabolised at 20 min (%)
# value in %; strip the unit string

Example entries begin here.
>>> reported_result("CCCC(=O)c1cnn([C@H]2CC[C@H](NC(=O)c3cn(CC(=O)N4CCN(C)CC4)c4ccc(Cl)cc34)CC2)c1C")
11
>>> reported_result("CCCC(=O)c1cnn(C2CCN(NC(=O)c3cn(CC(=O)N4CCN(C)CC4)c4ccc(Cl)cc34)CC2)c1C")
3
>>> reported_result("CCCC(=O)c1cnn(-c2ccc(NC(=O)c3cn(CC(=O)N4CCN(C)CC4)c4ccc(Cl)cc34)nn2)c1C")
4

With those in mind, consider the next compound.
Field metabolised at 20 min (entry `CCCC(=O)c1cnn(-c2ccc(NC(=O)c3cn(CC(=O)N4CCN(C)CC4)c4ccc(Cl)cc34)c(C#N)c2)c1C` ) reads 8

###

- ASSAY NOTES: Metabolic stability in human liver microsomes assessed as compound metabolism after 20 mins incubation in presence of 1 mM NADPH
- Assay type: ADME
- PARTICULARS: liver microsomes, read-out: Drug metabolism
metabolised at 20 min listing for selected molecules.
# value in %; strip the unit string

>>> reported_result("CCCC(=O)c1cnn(-c2ccc(NC(=O)c3cn(CC(=O)N4CCN(CC(F)F)CC4)c4ccc(C)cc34)cc2)c1C")
64
>>> reported_result("CCCC(=O)c1cnn(-c2ccc(NC(=O)c3cn(CC(=O)N4CCN(CCF)CC4)c4ccc(C)cc34)cc2)c1C")
62
>>> reported_result("CCCC(=O)c1cnn(-c2ccc(NC(=O)c3cn(CC(=O)O)c4cc(C)c(C)cc34)cc2)c1C")
4
>>> reported_result("CCCC(=O)c1cnn(-c2ccc(NC(=O)c3cn(CC(=O)N4CCN(C)CC4)c4cc(C)c(C)cc34)cc2)c1C.Cl")
50
>>> reported_result("CCCSc1nc(N[C@@H]2C[C@H]2c2ccc(F)c(F)c2)c2nnn([C@@H]3C[C@H](OCCO)[C@@H](O)[C@H]3O)c2n1")
20
>>> reported_result("CCCC(=O)c1cnn(C2CCN(NC(=O)c3cn(CC(=O)N4CCN(C)CC4)c4ccc(Cl)cc34)CC2)c1C")
59

Field metabolised at 20 min (entry `CCCC(=O)c1cnn(-c2ccc(NC(=O)c3cn(CC(=O)N4CCN(CCO)CC4)c4ccc(Cl)cc34)cc2)c1C` ) reads 14

Field metabolised at 20 min (entry `CCCC(=O)c1cnn(-c2ccc(NC(=O)c3cn(CC(=O)N4CCN(C)CC4)c4ccc(OC)cc34)cc2)c1C` ) reads 68

Data credit: ChEMBL document CHEMBL3352233
